Assay: Density and magnetic susceptibility of paramagnetic ionic liquids from MagLev levitation height of density standard beads
Assay type: physicochemical
Details: range of densities that can be levitated in MagLev
Protocol: The density of a diamagnetic object was determined, from its levitation height, by suspending the object in a container filled with paramagnetic ionic liquid and placed the container between two NdFeB magnets oriented with like poles facing each other (see FIG. 5). Before using the paramagnetic ionic liquids as liquids for density based measurement using Maglev, the density and magnetic susceptibility of each paramagnetic ionic liquid was first determined (examples shown in FIG. 6). […]
Readout Label: Accessible Density Range

**Q:** Endpoint output: Accessible Density Range of COC(=O)[C@H](C)[NH3+].COC(=O)[C@H](C)[NH3+].COC(=O)[C@H](C)[NH3+].[Cl][Ho-3]([Cl])([Cl])([Cl])([Cl])[Cl] [[AlaC1]3 [HoCl6]] . Value?
**A:** 0.92 to 1.93 g/mL

**Q:** Requested read-out: Accessible Density Range. Entry: COC(=O)[C@H](C)[NH3+].COC(=O)[C@H](C)[NH3+].COC(=O)[C@H](C)[NH3+].[Cl][Gd-3]([Cl])([Cl])([Cl])([Cl])[Cl] [[AlaC1]3 [GdCl6]]
**A:** 0.89 to 1.74 g/mL

**Q:** Please give the measured Accessible Density Range for this compound: CCCCCCCC[N+](C)(CCCCCCCC)CCCCCCCC.CCCCCCCC[N+](C)(CCCCCCCC)CCCCCCCC.[Cl][Mn-2]([Cl])([Cl])[Cl] [[Aliq]2 [MnCl4]]
**A:** 0.90 to 100 g/mL

**Q:** Fill blank: measured Accessible Density Range of the compound CCCCCCCC[N+](C)(CCCCCCCC)CCCCCCCC.CCCCCCCC[N+](C)(CCCCCCCC)CCCCCCCC.CCCCCCCC[N+](C)(CCCCCCCC)CCCCCCCC.[Cl][Gd-3]([Cl])([Cl])([Cl])([Cl])[Cl] [[Aliq]3 [GdCl6]] is ____.
**A:** 0.95 to 0.99 g/mL

**Q:** What measured Accessible Density Range goes with COC(=O)[C@H](C)[NH3+].COC(=O)[C@H](C)[NH3+].COC(=O)[C@H](C)[NH3+].[Cl][Dy-3]([Cl])([Cl])([Cl])([Cl])[Cl] [[AlaC1]3 [DyCl6]] ?
**A:** 0.91 to 1.91 g/mL
